- assayExplanation: Human HepG2 cell viability assay in 384 well format
- Assay type: toxicity, cell-based
- Set-up: dose 125 nL, time 70.5 hour; concentration not given beside the values
- testSettings: HepG2 cells, read-out: Inhibition
measure: cytotoxicity at 70.5 h (%)

> print(dat)
                                    compound  observedresult
 1  c1cc(-c2ccc3nc(C4CCN(CC5CC5)CC4)nn3c2)cs1            -8.2
 2       CCc1ncc2c(n1)CN(Cc1cccc3c1OCCO3)CC2           -3.18
 3  O=C(c1ccc2c(c1)[nH]c(=O)n2C1CCCC1)N1CC(O)C1           -3.54
 4  Cc1nc(O)cc([C@@H]2CN(C(=O)C3CC3)C[C@H]2c2ccccc2F)n1           -2.23
 5       Cc1cc(=O)n(CCNS(=O)(=O)c2ccccc2)cn1            -1.2
 6  c1ccc2sc(CN3CCOC(Cn4cccn4)C3)nc2c1 (centres undefined)            24.8
 7     COc1ccc2cccc(CC(=O)NCc3nccc(N)n3)c2c1           -2.39
 8  O=C(NCc1cccnc1)[C@H]1C[C@@H]2CCN(c3ccncn3)C[C@H]2O1           -5.01
 9  COC1CCN(S(=O)(=O)N2C[C@H](c3ccccc3)[C@@H](N)C2)CC1           -2.79
10  CCCc1ccc(OC23CCCN(CC2)C3)c(OC)c1 (centres undefined)           -9.71
11  CC(C)c1nnc(CN2CCCC3(CC2)CN(C)C(=O)O3)o1 (centres undefined)           -3.73
12  O=C(COCC(F)(F)C(F)F)N1CCC(c2ncc[nH]2)CC1           -5.35
13  Cn1nc(C2CCN(C(=O)Cc3cccc(F)c3)CC2)c2cccnc21           -6.14
14  CC(=O)N(C)C1CCN(C(=O)NCC(C)Cc2cccs2)CC1 (centres undefined)           -2.57
15  CNC(=O)c1cc2c(s1)CCN(C(=O)CCC1CCCN(C)C1)C2 (centres undefined)           -7.22
16  CN(C)c1nc2c(c(N3CCC4(CC3)CNC(=O)C4)n1)CCCC2           -3.91
17         CC(C)c1nc(-c2ccnc(N3CCNCC3)n2)no1           -7.09
18  COc1ccc(C2C3=C(CCCC3=O)Nc3nc(SC)nc(N)c32)cc1 (centres undefined)            6.58
19     O=C(O)CCc1cn(C2CCN(c3ncccc3Cl)CC2)nn1            7.14
20  Cc1cccc(-n2nc(CC(C)C)nc2CCn2ccc(=O)[nH]c2=O)c1           -2.09
21  c1csc(CN2CCC3(COCCN(CC4CC4)C3)C2)n1 (centres undefined)           -3.37
22  CC(C(=O)Nc1ccc(N2CCCCC2)nc1)n1cncn1 (centres undefined)            26.7
23     CCOCC(=O)N1CCC(c2nc(-c3cccnn3)no2)CC1           -11.6
24  N#CC(NC(=O)CCC(=O)NC1CCCC1)c1ccc(F)cc1F (centres undefined)           -11.2
